meta.source: patent US20230295324A1

Target: T1, human OX40 on cells (CHO-K1/hu OX40) (human, UniProt P43489 29-277)
T1 construct: whole, on cells; Also used here for OX40 on the HEK293/OX40/NF-kb reporter cells and on human T cells in the functional assays; also called CHO-K1/OX40; human OX40 cells
T1 sequence (looked up): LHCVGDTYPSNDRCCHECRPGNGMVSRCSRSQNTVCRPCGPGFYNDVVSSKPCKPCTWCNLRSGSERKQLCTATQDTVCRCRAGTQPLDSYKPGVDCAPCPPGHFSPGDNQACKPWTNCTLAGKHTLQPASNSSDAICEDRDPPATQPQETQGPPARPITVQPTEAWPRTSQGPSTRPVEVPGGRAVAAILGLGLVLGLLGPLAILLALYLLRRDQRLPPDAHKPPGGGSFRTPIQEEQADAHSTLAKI
Test: FACS, CHO-K1/hu OX40 cells
measured parameter: pEC50
# pEC50 = -log10(concentration in molar units)

Documented pEC50 of PR002071 (antibody, human IgG1, V domains shown, no light chain; also called anti-OX40 HCAb antibody) VH: EVQLVESGGGLVQPGGSLRLSCAASGFTFSSYAMSWVRQAPGKGLEWVSAISGGGGSIFYADSVRGRFTISRDNSKNTLYLQMNSLRAEDTAVYYCANGMTGTTDVDYWGQGTLVTVSS : 8.40

Entry PR002065 (antibody, human IgG1, V domains shown, no light chain; also called anti-OX40 HCAb antibody) VH: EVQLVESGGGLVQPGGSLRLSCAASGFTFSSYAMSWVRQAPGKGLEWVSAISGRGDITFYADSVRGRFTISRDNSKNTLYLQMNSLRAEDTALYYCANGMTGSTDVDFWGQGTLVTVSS ; pEC50 = 8.42

Please fill in: pEC50 reported for PR002077 (antibody, human IgG1, V domains shown, no light chain; also called anti-OX40 HCAb antibody) VH: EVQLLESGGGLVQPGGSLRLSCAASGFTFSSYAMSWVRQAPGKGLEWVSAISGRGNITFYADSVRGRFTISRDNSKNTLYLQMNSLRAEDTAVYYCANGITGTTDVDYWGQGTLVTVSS = 8.14

# pEC50 (binder: PR002055 (antibody, human IgG1, V domains shown, no light chain; also called anti-OX40 HCAb antibody) VH: EVQLLESGGGLVQPGGSLRLSCAASGLTFSSYAMSWVRQAPGKGLEWISAISGGGGSTYYADSVRGRFTISRDNSKNTLYLQMNSLRAEDTAVYYCANGMTGSTDVDYWGQGTLVTVSS ) is 8.50

Record summary for PR002068 (antibody, human IgG1, V domains shown, no light chain; also called anti-OX40 HCAb antibody) VH: EVQLLESGGGLVQPGGSLRLSCAASGFSFSSYAMTWVRQAPGKGLEWVSAISGGGGSIFYADSVRGRFTISRDNSKNTLYLQMNSLRAEDTAVYYCANGMTGSTDVDYWGQGTQVTVSS : reported pEC50 = 8.00

Value of measured pEC50 for the entry PR002069 (antibody, human IgG1, V domains shown, no light chain; also called anti-OX40 HCAb antibody) VH: EVQLLESGGGLVQPGGSLRLSCAASGFTFSSYAMSWVRQAPGKGREWVSAISGGGGNTFYADSVRGRFTISRDNSKNTLYLQMNSLRAEDTAVYYCANGVTGTTDVDYWGQGTLVTVSS : 8.35

pEC50 reading for PR002072 (antibody, human IgG1, V domains shown, no light chain; also called anti-OX40 HCAb antibody) VH: EVQLLESGGGLVQPGGSLRLSCAASGFTFSSYAMSWVRQASGKGLEWISAISGSGGSTYYADSVRGRFTISRDNSKNTLYLQMNSLRADDTAVYYCANGMTGTTDVDFWGQGTPVTVSS : 8.25

Value of measured pEC50 for the entry PR002060 (antibody, human IgG1, V domains shown, no light chain; also called anti-OX40 HCAb antibody) VH: EVQLLESGGGLVQPGGSLRLSCAASGFTFSDYAMSWVRQAPGKGLEWVSAISGRGGSTYYADSVRGRFTISRDNSKNTLYLQMTSLRAEDTAVYYCANGMTGTTDVDYWGQGTLVTVSS : 8.05
